Source listed as paper PMC6135396.

Experiment: Hepatic microsome stability, rat
Format: in vitro ADME
Conditions: liver microsomes, pH 7.4, single phase, read-out: Hepatic microsome stability T1/2
ATTRIBUTE MEASURED: half-life at 1 μM (min)
Form entry: value (min) — number only.

Exam item: Please look up its half-life at 1 μM: CCN(CC)Cc1cc(Nc2ccnc3cc(Cl)ccc23)ccc1O [AQ, amodiaquine]
Marked response: 38.9

###

Recorded pIC50 for the following compounds
Target: angiotensin II type 1 (AT1) (Homo sapiens, UniProt P30556)
Construct: β-galactosidase enzyme fragment (enzyme fragment complementation construct); host or cells: CHO-K1 (CHO-K1-AT1, PathHunter)
Sequence (P30556 whole entry, the tested form may be a part): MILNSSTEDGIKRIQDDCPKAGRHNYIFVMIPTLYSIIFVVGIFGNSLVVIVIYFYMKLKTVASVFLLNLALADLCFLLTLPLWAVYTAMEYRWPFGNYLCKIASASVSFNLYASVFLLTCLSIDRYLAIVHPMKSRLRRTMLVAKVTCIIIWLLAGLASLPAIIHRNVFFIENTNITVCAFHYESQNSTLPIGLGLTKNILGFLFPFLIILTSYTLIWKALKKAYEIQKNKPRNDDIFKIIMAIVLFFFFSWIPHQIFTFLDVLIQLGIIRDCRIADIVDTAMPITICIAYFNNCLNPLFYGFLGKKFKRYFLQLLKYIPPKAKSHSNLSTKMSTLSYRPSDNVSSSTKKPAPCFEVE
Experiment: AT1 β-arrestin recruitment counter assay (CHO-K1-AT1)
Assay type: cell-based
pIC50: −log10 of the molar value.

Some solved entries appear below for comparison.
COMPOUND	pIC50
COc1ccc(Nc2ccnc3cc(Cl)ccc23)cc1	< 4.40
O=C(OCC(O)CO)c1ccccc1Nc1ccnc2cc(Cl)ccc12 (centres unmarked)	< 4.00
O=C(c1ccccc1Nc1ccnc2cc(Cl)ccc12)N1CCOCC1	< 4.40
O=C(O)c1ccccc1Nc1ccnc2cc(Cl)ccc12	< 4.40

Exam item: Please look up its pIC50: NC(=O)c1ccc(Nc2ccnc3cc(Cl)ccc23)cc1
Marked response: < 4.40
